System: A549
Test: Inhibition of TNFalpha-induced NFkappaB in human A549 cells assessed as residual enzyme activity at 50 uM incubated for 30 mins prior to TNFalpha-induction measured after 7 hrs by luciferase reporter gene assay relative to control
Type: cell-based
The reader will find reported Activity values listed item by item below.
State the answer as a number, implicitly in %.

Query block: Note down Activity recorded for CC(=O)O/C(=C1\CO[C@]2(C)C=CC(=O)C[C@H]12)c1ccccc1 (racemic)
Result block: 61.6

Query block: Look up and report measured Activity for this entry: CC(=O)O/C(C)=C1\CO[C@]2(c3ccccc3)C=CC(=O)C[C@H]12 (racemic; form 1)
Result block: 36.2

Query block: Please list Activity recorded for the molecule CC(=O)O/C(=C1\CO[C@]2(C)CCC(=O)C[C@H]12)c1ccccc1 (racemic)
Result block: 94.4

Kindly review the next molecule as well.
Query block: Look up and report measured Activity for this entry: CC(=O)O/C(C)=C1\CO[C@]2(c3ccccc3)C=CC(=O)C[C@H]12 (racemic; form 2)
Result block: 18

###

Test system: Vero
Assay: Cytotoxicity against african green monkey Vero cells after 48 hrs by alamar blue assay
Format: cell-based
Details: Chlorocebus sabaeus
Measured IC50 by item

Below, each entry is followed by its recorded IC50 result.
Query block: Name the value of IC50 reported for CC(=O)O/C(=C1\CO[C@]2(C)CCC(=O)C[C@H]12)c1ccccc1 (racemic) when tested on Vero.
Result block: > 500 µM

Query block: Give IC50 for this entry on Vero: CC(=O)O/C(=C1\CO[C@]2(C)C=CC(=O)C[C@H]12)c1ccccc1 (racemic)
Result block: > 500 µM

The record that follows has no IC50 shown yet.
Query block: Look up and report measured IC50 (Vero) for the following compound: CC(=O)O/C(C)=C1\CO[C@]2(c3ccccc3)C=CC(=O)C[C@H]12 (racemic; form 1)
Result block: > 500 µM
